- assay method text: Solubility in deionised water, acetate, succinate and citrate buffers (Example 5)
- Format: physicochemical
- details: succinate buffer, aqueous buffer, thermodynamic from solid; 50 mM Succinate pH 6.0; pH 5.69; read-out: Solubility L-lactate salt of compound of formula (I)
assay metric: solubility (mg/mL)
Answers are plain numbers, in mg/mL.

Asked: Query solubility for CC(C)c1cc(C(=O)N2Cc3ccc(CN4CCN(C)CC4)cc3C2)c(O)cc1O.C[C@H](O)C(=O)O
Given back: 78.3

====

- assay method text: Solubility in deionised water, acetate, succinate and citrate buffers (Example 5)
- Type: physicochemical
- details: succinate buffer, aqueous buffer, thermodynamic from solid; 50 mM Succinate pH 5.5; pH 5.38; read-out: Solubility L-lactate salt of compound of formula (I)
- Description: Aliquots of 1 g of the L-lactate salt of the compound of formula (I) were weighed into individual 20 ml scintillation vials and 10 ml of each buffer was added to a vial. An additional sample was prepared in deionised water. […] The appearance of each sample was recorded. […] Assay by UV: A calibration curve was prepared using the L-lactate salt of the compound of formula (I) dissolved in deionised water and covering the range 0 to 0.10 mg/ml. Absorbance was determined at 286 nm. […]
assay metric: solubility (mg/mL)
Numbers only, in mg/mL.

Asked: Tell me its solubility given CC(C)c1cc(C(=O)N2Cc3ccc(CN4CCN(C)CC4)cc3C2)c(O)cc1O.C[C@H](O)C(=O)O as the entry.
Given back: 78.3
